Molecular target: HLA-A*26:01
Experiment: IEDB peptide-MHC binding, purified MHC/competitive/radioactivity; filed as Kd, often an IC50 or EC50 that approximates it; bounds were set here for any values at or beyond the usual limits of such assays
Conditions: source organism: Dengue virus 2 Jamaica/1409/1983
measure.name: Kd (nM)
One number for each entry, in nM.

A selection of reference data follows.
WTMKILIGV; 5360
EIVDLMCHA; 1580

Turning now to a further sequence:
Form: sequence = `ITASILLWY` ; Kd = 5.66

----------
Biological target: HLA-A*26:01
Assay: IEDB peptide-MHC binding, purified MHC/direct/fluorescence; filed as Kd, often an IC50 or EC50 that approximates it; bounds were set here for any values at or beyond the usual limits of such assays
Settings: source organism: Cryptosporidium parvum Iowa II
measure.name: Kd

Form: sequence = `RAIMTTWTV` ; Kd = ≥ 20 µM

----------
Target: HLA-A*68:02
Experiment: IEDB peptide-MHC binding, purified MHC/direct/fluorescence; filed as Kd, often an IC50 or EC50 that approximates it; bounds were set here for any values at or beyond the usual limits of such assays
Conditions: source organism: Influenza A virus (A/England/654/2007(H1N1))
measure.name: Kd

Form: sequence = `WTGMVDGWY` ; Kd = ≥ 20 µM

----------
Target: HLA-C*04:01
Assay: IEDB peptide-MHC binding, purified MHC/direct/fluorescence; filed as Kd, often an IC50 or EC50 that approximates it; bounds were set here for any values at or beyond the usual limits of such assays
Settings: source organism: Rickettsia typhi str. Wilmington
measure.name: Kd

Form: sequence = `IYYWTAWLI` ; Kd = ≥ 20 µM

----------
Target: HLA-A*03:01
Assay: IEDB peptide-MHC binding, purified MHC/competitive/radioactivity; filed as Kd, often an IC50 or EC50 that approximates it; bounds were set here for any values at or beyond the usual limits of such assays
Conditions: source organism: Mammarenavirus machupoense
pKd: −log10 of the molar value.
measure.name: pKd

Form: sequence = `DTNLITCNDH` ; pKd = ≤ 4.15

----------
Target: HLA-B*08:01
Assay: IEDB peptide-MHC binding, purified MHC/competitive/fluorescence; filed as Kd, often an IC50 or EC50 that approximates it; bounds were set here for any values at or beyond the usual limits of such assays
Details: source organism: Variola virus
measure.name: Kd

Form: sequence = `EYKKFIATF` ; Kd = ≥ 20 µM

----------
Biological target: HLA-B*18:01
Experiment: IEDB peptide-MHC binding, purified MHC/competitive/fluorescence; filed as Kd, often an IC50 or EC50 that approximates it; bounds were set here for any values at or beyond the usual limits of such assays
Details: source organism: Mycobacterium leprae
measure.name: Kd

Form: sequence = `TVGYMYIMK` ; Kd = ≥ 20 µM

----------
For each entry below, report its pKd value.
Molecular target: HLA-A*02:06
Assay: IEDB peptide-MHC binding, purified MHC/competitive/radioactivity; filed as Kd, often an IC50 or EC50 that approximates it; bounds were set here for any values at or beyond the usual limits of such assays
Details: source organism: Dengue virus 2 Jamaica/1409/1983
Answers are plain numbers, as −log10 of the molar value.

WTMKILIGV; 7.75

Turning now to a further sequence:
Form: sequence = `TILIRTGLLV` ; pKd = 7.00

----------
Molecular target: HLA-B*27:05
Test: IEDB peptide-MHC binding, purified MHC/direct/fluorescence; filed as Kd, often an IC50 or EC50 that approximates it; bounds were set here for any values at or beyond the usual limits of such assays
Details: source organism: Brucella melitensis
measure.name: Kd (nM)
Numbers only, in nM.

Form: sequence = `GRKTPLLCF` ; Kd = 939
